Exercise: state measured composite z-score for each of the molecules provided.
- Assay notes: small-molecule microarray binders of probe aWnt5a, primary screen, biochemical, biotinylated probe, 635/667 nm fluorescence (AID 1113);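 also: score merges 667 nm fluorescence intensity with signal-to-noise per printed feature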
- Study conditions: higher = more signal
Reply with just the number.

Query :: Please report the measured composite z-score for COc1cccc([C@@H]2[C@@H](C)CC[C@H]3C(=O)N4[C@H](c5cccc(OC)c5)[C@@H](C)CC[C@H]4C(=O)N23)c1
Result :: -0.0853

Query :: Read the entry O=C1C[C@@](C(=O)NC2CC2)(c2ccc([N+](=O)[O-])cc2)[C@@H](c2ccc(CO)cc2I)N1CC12CC3CC(CC(C3)C1)C2 and write its reported composite z-score.
Result :: 0.0644

Query :: Supply measured composite z-score of O=C1C2C=CC(C(O)Cc3ccccc3)N(Nc3ccc([N+](=O)[O-])cc3)C2C(=O)N1c1ccccc1 (centres undefined) in your reply.
Result :: 0.159

Query :: Could you please provide reported composite z-score for CCCN1C(=O)[C@@]2(CCS(=O)(=O)c3ccccc3)N=C(c3ccc(OCCCO)cc3)O[C@H]2c2ccccc21 ? Thanks!
Result :: -0.0721

----------
- Measured target: Fibroblast growth factor 10 (Homo sapiens)
- Assay notes: FGF10 binders on small-molecule microarrays, primary screen, biochemical, small-molecule microarray, 635 nm fluorescence (AID 1102)
- Study conditions: FGF10 binding, fluorescence 635 nm, higher = more signal
Readout: composite z-score

Query :: In one line, give reported composite z-score of the entry CC[C@H]1C2=C3C(CC[C@H]4C(OC)OC[C@](C)([C@@H]34)N(C(=O)OC(C)(C)C)C2)C(CO)C1CO (some centres not stated) .
Result :: 0.754

Query :: Specify reported composite z-score for the compound shown: CO[C@H]1COC(=O)[C@H](C)NC(=O)CC=C[C@@H](C)[C@H](NS(=O)(=O)c2ccc(C)cc2)COC(=O)CC=C[C@@H]1C
Result :: 0.27

Query :: Provide composite z-score value for the following compound: COCCOC(=O)N1C(=O)[C@@]2(c3cc(C#CC4=CCCCC4)ccc31)[C@H](C(=O)NC[C@H](O)c1ccccc1)[C@H]1C(=O)O[C@H](c3ccccc3)[C@H](c3ccccc3)N1[C@@H]2c1ccc(OCCO)cc1
Result :: 1.29

Query :: Give recorded composite z-score. COc1ccc(CCNC(=O)[C@@]2(c3ccc([N+](=O)[O-])cc3)CC(=O)N(C(C)C)[C@@H]2c2ccc(CO)cc2)cc1
Result :: -0.787

Query :: Annotate the compound O=C1C[C@@](C(=O)NCCN2CCOCC2)(c2ccc([N+](=O)[O-])cc2)[C@@H](c2ccc(CO)cc2)N1C1CCCCC1 with its measured composite z-score.
Result :: 0.798

Query :: Identify composite z-score associated with the compound C=CC(=O)O[C@@H](Cc1ccccc1)[C@H]1C2C=CCCC=C2CN1Cc1cccc(Cl)c1 (some centres not stated)
Result :: -0.281

Query :: Specify measured composite z-score for Cc1ccc(N2C(=O)c3ccccc3[C@@H](C(=O)NCc3ccccc3)[C@@H]2c2ccc(CO)cc2)nc1 .
Result :: 0.329

Query :: Provide composite z-score value for the following compound: COc1ccc([Si](C)(C)[C@H]2[C@H](CCO)O[C@@]3(C(=O)N(Cc4ccc(N5CCCCC5=O)cc4)c4ccccc43)[C@@H]2C)cc1
Result :: 0.345

Query :: Give the value of composite z-score reported for the following: C[C@@H]1CC[C@H]2C(=O)N3CCC[C@H]3C(=O)N2[C@H]1c1ccc(Br)cc1
Result :: 0.125

Query :: Using the record for C=CC[C@@]1(C(=O)NCC(O)CO)N=C(c2ccc(OCCCO)cc2)O[C@@H]1c1ccccc1CN=[N+]=[N-] (some centres not stated) , state its measured composite z-score.
Result :: 0.0349

Query :: Note down composite z-score recorded for NC(=O)NCC#Cc1ccc2c(c1)[C@]1(C(=O)N2)[C@H](c2ccccc2OCCO)N2[C@H](c3ccccc3)[C@H](c3ccccc3)OC(=O)[C@H]2[C@@H]1C(=O)N1CCN(c2ncccn2)CC1
Result :: 0.651

Query :: Output measured composite z-score for this item: Cc1ccc(N2C(=O)c3ccccc3[C@@H](C(=O)NCC(F)(F)F)[C@@H]2c2ccc(CO)cc2)nc1
Result :: -1.15

Query :: # return recorded composite z-score for entry CO[C@H]1COC(=O)[C@@H](C)COC(=O)[C@H](Cc2ccccc2)NC(=O)CC=C[C@H]1C
Result :: 0.457

Query :: State its composite z-score for this compound: COc1ccc([Si](C)(C)[C@H]2[C@H](CC(=O)N3Cc4ccccc4C[C@H]3CO)O[C@@]3(C(=O)N(Cc4cccc(N5CCOC5=O)c4)c4ccccc43)[C@@H]2C)cc1
Result :: 0.701

Query :: Output measured composite z-score for this item: CCCC[C@H]1OB(O)C[C@H]2C1=C(COC)C[C@H]1C(=O)N(Cc3ccccc3)C(=O)[C@H]12
Result :: 0.78

Query :: Kindly indicate its recorded composite z-score. Item: C[C@H]1C2[C@H](Cc3ccccc3)NC(=O)[C@]23C(=O)N[C@H](Cc2ccccc2)C(=O)N[C@@H](Cc2ccccc2)C(=O)NC/C=C\C/C=C/C3[C@@H]2O[C@]12C (some centres not stated)
Result :: 0.345

Query :: Please look at this compound and report its composite z-score: COc1ccc(-c2cc3c(c(-c4ccccc4)n2)[Si](C(C)C)(C(C)C)O[C@H]3c2ccccc2)cn1
Result :: 0.22

Query :: Quote composite z-score reported for O=C1O[C@H](c2ccccc2)[C@H](c2ccccc2)N2[C@H]1[C@@H](C(=O)NC[C@H](O)c1ccccc1)[C@]1(C(=O)Nc3ccc(C#CC4=CCCCC4)cc31)[C@H]2c1ccc(OCCO)cc1 please.
Result :: 0.313

Query :: Given C=CC[C@]1(C(=O)OC)N=C(c2ccc(OCCCO)cc2)O[C@H]1c1ccccc1CN=[N+]=[N-] , respond with its composite z-score.
Result :: -0.404

Query :: Answer with the recorded composite z-score for the compound listed here: COCCOC(=O)N1C(=O)[C@@]2(c3cc(C#CCNC(N)=O)ccc31)[C@H](c1ccc(OCCO)cc1)N1[C@H](c3ccccc3)[C@H](c3ccccc3)OC(=O)[C@H]1[C@@H]2C(=O)Nc1nc2ccccc2s1
Result :: 0.574

Query :: Please report composite z-score for the following compound: [N-]=[N+]=NCc1ccccc1[C@H]1OC(c2ccc(OCCCO)cc2)=N[C@@]1(Cc1ccccc1N=[N+]=[N-])C(=O)NCc1ccccc1
Result :: 1.03

Query :: Given the compound [N-]=[N+]=Nc1ccccc1C[C@@]1(C(=O)N2CCOCC2)N=C(c2ccc(OCCCO)cc2)O[C@@H]1c1ccccc1N=[N+]=[N-] , write its reported composite z-score.
Result :: 0.997

Query :: Annotate the compound C=CCC(OC(C)=O)[C@@H]1[C@@H](N(Cc2cccc3ccccc23)C(=O)c2ccc(C)cc2)c2cc(OCCCO)ccc2N1C(=O)c1ccc(-c2ccccc2)cc1 (some centres not stated) with its measured composite z-score.
Result :: -0.162

Query :: Determine from records and report composite z-score for C[C@H]1COC(=O)[C@H](Cc2ccccc2)NC(=O)[C@@H](C)COC(=O)[C@H](Cc2ccccc2)NC1=O
Result :: 0.632

Query :: Kindly indicate its recorded composite z-score. Item: COCCOC(=O)N1C(=O)[C@@]2(c3cc(C#CCNC(N)=O)ccc31)[C@H](c1ccccc1OCCO)N1[C@H](c3ccccc3)[C@H](c3ccccc3)OC(=O)[C@H]1[C@@H]2C(=O)NC[C@H](O)c1ccccc1
Result :: 1.18

Query :: Annotate the compound COc1ccc(CCN2C(=O)[C@@]3(c4ccc([N+](=O)[O-])cc4)CC(=O)N(CC45CC6CC(CC(C6)C4)C5)[C@@H]3c3ccc(CO)cc32)cc1 with its measured composite z-score.
Result :: -0.212

Query :: Note down composite z-score recorded for C=CCN(C(=O)C1N(c2ccc(CCO)cc2)C(=O)C2C(C(=O)O)C3C=CC21O3)C(C)(C)C (configuration not stated)
Result :: -1.86

----------
- Measured target: NADPH oxidase 2 (Homo sapiens) (UniProt P04839)
- Sequence (P04839 whole entry, looked up): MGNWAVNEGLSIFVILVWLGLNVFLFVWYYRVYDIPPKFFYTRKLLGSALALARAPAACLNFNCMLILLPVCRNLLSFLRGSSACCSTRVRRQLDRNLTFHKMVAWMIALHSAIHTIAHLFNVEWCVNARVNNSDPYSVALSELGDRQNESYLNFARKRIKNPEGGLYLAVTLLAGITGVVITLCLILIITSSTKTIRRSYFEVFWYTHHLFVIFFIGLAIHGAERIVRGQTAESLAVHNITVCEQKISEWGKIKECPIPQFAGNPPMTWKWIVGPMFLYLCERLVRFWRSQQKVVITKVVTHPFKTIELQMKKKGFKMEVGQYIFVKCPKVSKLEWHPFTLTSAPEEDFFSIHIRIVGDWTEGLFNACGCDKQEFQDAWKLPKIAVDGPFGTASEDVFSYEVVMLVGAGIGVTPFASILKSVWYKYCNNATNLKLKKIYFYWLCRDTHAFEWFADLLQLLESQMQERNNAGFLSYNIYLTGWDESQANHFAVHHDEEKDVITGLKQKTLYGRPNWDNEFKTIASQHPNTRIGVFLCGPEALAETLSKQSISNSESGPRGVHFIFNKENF
- Assay notes: NOX2-dependent H2O2 signal modulators, primary screen, NOX inhibitor project, cell-based, HEK293-NOX2, PMA-stimulated, Amplex Red fluorescence (AID 1159); also: test concentration not given here
- Study conditions: 45 min, higher = more signal, called active from +8 up or from −8 down
Class membership depends on z-score alone; the intervals are lo (below -0.6), mid (-0.6 to below 0.1), hi (0.1 or more)

Query :: Entry C=CCC(OC(C)=O)[C@@H]1[C@@H](N(Cc2ccc(-c3ccccc3)cc2)C(=O)c2ccc(C)cc2)c2cc(OCCCO)ccc2N1C(=O)c1ccc(-c2ccccc2)cc1 (stereo not given in full) belongs to which category?
Result :: mid

Query :: # classify by z-score band: C=CCC(OC(C)=O)[C@@H]1[C@@H](N(Cc2ccc(-c3ccccc3)cc2)C(=O)c2ccc(-c3ccccc3)cc2)c2cc(OCCCO)ccc2N1C(=O)Cc1ccc(OC)cc1 (stereo not given in full)
Result :: lo

Query :: Hey, which category is Cc1ccc(S[C@]2(C(=O)O)CC(=O)N(Cc3cc(C(F)(F)F)cc(C(F)(F)F)c3)[C@@H]2c2ccc(CO)cc2I)cc1 in, do you know?
Result :: hi

Query :: # bin lookup: classify C=CCC1=C[C@H]2[C@H]([C@@H]3C=C[C@]2(CC=C)C(=O)[C@]32CO2)[C@@]2(CO2)C1=O by its z-score
Result :: mid

Query :: Input CCCNC(=O)[C@@H]1c2ccccc2C(=O)N(Cc2cc(F)cc(C(F)(F)F)c2)[C@H]1c1ccc(CO)cc1 ; output its category
Result :: hi

Query :: Band of COc1ccc(CCNC(=O)[C@@]2(c3ccc([N+](=O)[O-])cc3)CC(=O)N(C(C)C)[C@@H]2c2ccc(CO)cc2)cc1 ?
Result :: hi

Query :: Which bin, given its z-score, does COc1ccc([Si](C)(C)[C@H]2[C@H](CC(=O)N(CCO)Cc3ccccc3)O[C@@]3(C(=O)N(C)c4ccccc43)[C@@H]2C)cc1 occupy?
Result :: mid

Query :: Please report the category associated with CC(c1ccccc1)C(O)C1C=CC2C(=O)N(C)C(=O)C2N1N(c1ccccc1)c1ccccc1 (stereo not given) , nothing else.
Result :: lo

Query :: Would you mind sorting O=C1C2C=CC(C(O)C#Cc3ccccc3)N(Nc3ccccc3)C2C(=O)N1c1ccccc1 (stereo not given) into the appropriate category?
Result :: mid

Query :: Bin this entry: CN1C(=O)C2C=CC(C(O)c3ccc(N(C)C)cc3)N(Nc3ccc([N+](=O)[O-])cc3[N+](=O)[O-])C2C1=O (stereo not given)
Result :: lo

Query :: Which class does CC(C)(C)OC(=O)CC[C@]1(C(=O)NCCN2CCOCC2)N=C(c2ccc(OCCCO)cc2)O[C@H]1c1ccccc1CN=[N+]=[N-] fall in?
Result :: hi

Query :: Quick check: band for C#CCCCON=C1C[C@@H](O)[C@@H](O)[C@@H]2[C@@H]3C(=O)N(Cc4ccc5c(c4)OCO5)C(=O)[C@@H]3CC[C@H]12
Result :: mid

Query :: For O=C(N1CCCCC1)[C@@]1(CCS(=O)(=O)c2ccccc2)N=C(c2ccc(OCCCO)cc2)O[C@H]1c1ccccc1 , which z-score bin applies?
Result :: lo

Query :: Textbook exercise: identify the category of the compound given here, C#C[C@H](O[Si](C#Cc1ccccc1)(C(C)C)C(C)C)c1ccccc1 , according to its measured value.
Result :: hi

// provenance: PubChem BioAssay
